Recorded IC50 values for a group of molecules are listed next.
# Tested on: OCI-LY7 cells
# method description: Cell viability assay (CellTiter-Glo, 72 h)
# Assay type: cell-based
# reported conditions: Homo sapiens, read-out: Results from inhibition of OCI-LY7 cells (IC50)
# Experimental: An in vitro cell viability assay was conducted using the compounds of Examples 1-50 following the steps below: 1. After OCI-LY7 cells were recovered, they were cultured at 37° C., 5% CO2, and 95% humidity. 2. […] 5. The cell survival rate was measured by the method of CellTiter-Glo® Luminescent Cell Viability Assay (Promega, Cat #G7572). The fluorescence data were read on a microplate reader (EnVision™, a multi-function microplate detector, PerkinElmer). […]

Solved cases below.
molecule	assay target	IC50
Cc1cc[nH]c(=O)c1-c1ccc2nc(Nc3cccc(NC(=O)/C=C/CN(C)C)c3)ncc2c1 [Example 5]	OCI-LY7 cells	< 500 nM
C=CC(=O)N1CCC[C@H]1C(=O)Nc1cccc(Nc2ncc3cc(-c4c(C)cc[nH]c4=O)ccc3n2)c1 [Example 21]	OCI-LY7 cells	< 500 nM
C=CC(=O)Nc1cccc(Nc2ncc3cc(-c4c(C)ccn(-c5cccc(C(F)(F)F)c5)c4=O)ccc3n2)c1 [Example 13]	OCI-LY7 cells	< 500 nM
Cc1cc[nH]c(=O)c1-c1ccc2nc(Nc3cccc(NC(=O)/C=C/CN4CCCCC4)c3)ncc2c1 [Example 7]	OCI-LY7 cells	< 500 nM
C=CC(=O)Nc1cc(Nc2ncc3cc(-c4c(C)cc[nH]c4=O)ccc3n2)ccc1OCCOC [Example 6]	OCI-LY7 cells	< 500 nM

Problem: Record request: IC50 value, item C=CC(=O)N(CC)c1cccc(Nc2ncc3cc(-c4c(C)ccn(C(=O)OCC)c4=O)ccc3n2)c1 [Example 28]
Result: < 500 nM

Problem: Requested field: IC50. Item: Cc1cc[nH]c(=O)c1-c1ccc2nc(Nc3cccc(NC(=O)CN)c3)ncc2c1 [Example 9]
Result: 500 to 2500 nM

Problem: // returns reported IC50 for input C=CC(=O)Nc1cc(Nc2ncc3cc(-c4c(C)cc[nH]c4=O)ccc3n2)ccc1OC [Example 36]
Result: < 500 nM

Problem: Please report the recorded IC50 for C=CC(=O)N(CC)c1cc(Nc2ncc3cc(-c4c(C)cc[nH]c4=O)ccc3n2)ccc1C [Example 40] .
Result: 500 to 2500 nM
